Values compiled from ChEMBL document CHEMBL1833887.

test: Dissociation constant, pKa of the compound; assay type: physicochemical
Parameter pKa: see the listing below.
The answer should be a number; do not append a unit.

Some compounds with known pKa results, for comparison:
Incoming: State the recorded pKa for this entry: COc1ccc(F)cc1CNCCCNc1ccnc2cc(-c3ccc(C(F)(F)F)cc3)ccc12
Outgoing: 9.47

Incoming: State the recorded pKa for this entry: COc1cccc(CNCCCNc2ccnc3cc(-c4ccccc4)ccc23)c1O
Outgoing: 9.47

Incoming: State the recorded pKa for this entry: COc1ccccc1Oc1ccc2c(NCCCNCc3cccc(OC)c3O)ccnc2c1
Outgoing: 9.28

Incoming: State the recorded pKa for this entry: COc1ccc(-c2ccc3c(NCCCNCc4ccco4)ccnc3c2)cc1
Outgoing: 9.47

Incoming: State the recorded pKa for this entry: Clc1ccc(Oc2ccc3c(NCCCNCc4ccc5c(c4)OCO5)ccnc3c2)cc1
Outgoing: 9.28

Incoming: State the recorded pKa for this entry: COc1cccc(CNCCCNc2ccnc3cc(Cc4ccc(C#N)cc4)ccc23)c1O
Outgoing: 9.47

Then there is this compound:
Incoming: State the recorded pKa for this entry: FC(F)(F)c1ccc(-c2ccc3c(NCCCNCc4ccco4)ccnc3c2)cc1
Outgoing: 9.47

* * *

assay: Ratio of EC50 for human HepG2 cells to EC50 for Plasmodium falciparum 3D7 infected in human erythrocytes
measured_parameter: Ratio EC50

Incoming: State the recorded Ratio EC50 for this entry: COc1cccc(CNCCCNc2ccnc3cc(CC(C)C)ccc23)c1O
Outgoing: 144.5

Incoming: State the recorded Ratio EC50 for this entry: COc1ccc(F)cc1CNCCCNc1ccnc2cc(Cc3ccc(F)cc3Cl)ccc12
Outgoing: 11.8

Incoming: State the recorded Ratio EC50 for this entry: Clc1ccc(Oc2ccc3c(NCCCNCc4ccco4)ccnc3c2)cc1
Outgoing: 194

Incoming: State the recorded Ratio EC50 for this entry: c1ccc2c(-c3ccc4c(NCCCNCc5ccc6c(c5)OCO6)ccnc4c3)cccc2c1
Outgoing: 11

Incoming: State the recorded Ratio EC50 for this entry: c1cc(NCCCNCc2ccc3c(c2)OCO3)c2ccc(CC3CCCCC3)cc2n1
Outgoing: 155.2

Incoming: State the recorded Ratio EC50 for this entry: N#Cc1ccc(Cc2ccc3c(NCCCNCc4ccc5c(c4)OCO5)ccnc3c2)cc1
Outgoing: 270.2

Incoming: State the recorded Ratio EC50 for this entry: Cc1cc(C)cc(Cc2ccc3c(NCCCNCc4ccc5c(c4)OCO5)ccnc3c2)c1
Outgoing: 55.5

Incoming: State the recorded Ratio EC50 for this entry: c1ccc(-c2ccc3c(NCCCNCc4ccco4)ccnc3c2)cc1
Outgoing: 291.6

Incoming: State the recorded Ratio EC50 for this entry: FC(F)(F)c1cc(-c2ccc3c(NCCCNCc4ccco4)ccnc3c2)cc(C(F)(F)F)c1
Outgoing: 8.5

Then there is this compound:
Incoming: State the recorded Ratio EC50 for this entry: COc1ccc(F)cc1CNCCCNc1ccnc2cc(C3CCCCC3)ccc12
Outgoing: 25.4

* * *

Parameter Ratio EC50: see the listing below.
assay: Ratio of EC50 for human HepG2 cells to EC50 for Plasmodium falciparum 3D7 infected in human erythrocytes

Incoming: State the recorded Ratio EC50 for this entry: COc1cccc(CNCCCNc2ccnc3cc(-c4cc(C(F)(F)F)cc(C(F)(F)F)c4)ccc23)c1O
Outgoing: 32.4

Incoming: State the recorded Ratio EC50 for this entry: FC(F)(F)c1cc(-c2ccc3c(NCCCNCc4ccc5c(c4)OCO5)ccnc3c2)cc(C(F)(F)F)c1
Outgoing: 4.1

Incoming: State the recorded Ratio EC50 for this entry: COc1ccc(F)cc1CNCCCNc1ccnc2cc(-c3ccc(C(C)(C)C)cc3)ccc12
Outgoing: 4.3

Incoming: State the recorded Ratio EC50 for this entry: c1cc(NCCCNCc2ccc3c(c2)OCO3)c2ccc(C3CCCCC3)cc2n1
Outgoing: 23.6

Incoming: State the recorded Ratio EC50 for this entry: COc1ccc(F)cc1CNCCCNc1ccnc2cc(Cc3ccccc3)ccc12
Outgoing: 726.7

Others:
Incoming: State the recorded Ratio EC50 for this entry: Clc1ccc(Oc2ccc3c(NCCCNCc4ccc5c(c4)OCO5)ccnc3c2)cc1
Outgoing: 189

Incoming: State the recorded Ratio EC50 for this entry: COc1cccc(CNCCCNc2ccnc3cc(Oc4cccc(N(C)C)c4)ccc23)c1O
Outgoing: 765

Incoming: State the recorded Ratio EC50 for this entry: COc1cccc(CNCCCNc2ccnc3cc(Cc4ccc(C#N)cc4)ccc23)c1O
Outgoing: 674.8

Incoming: State the recorded Ratio EC50 for this entry: COc1cccc(Oc2ccc3c(NCCCNCc4cccc(OC)c4O)ccnc3c2)c1
Outgoing: 74

Incoming: State the recorded Ratio EC50 for this entry: COc1ccc(Oc2ccc3c(NCCCNCc4ccc5c(c4)OCO5)ccnc3c2)cc1
Outgoing: 172
